max response values for the molecules below.
# protocolDescription: Cycloheximide Counterscreen for Small Molecule Inhibitors of Shiga Toxin; also: read at 38.3 µM for the half of the compounds with a filed dose; 0% is about no effect
# conditionLabel: cell reporter, cycloheximide protein synthesis inhibition counterscreen; active compounds read high
In all, about 300,000 compounds went through this assay and about 37,000 (12%) were called active. Shown is part of a subset that was picked to be rich in actives.
The figure you give is taken to be in %; do not add the unit.

Some molecules with known max response results, for comparison:
molecule | unitsOfMeasure | max response
COc1ccc(N2CCN(C3CCCCC3NS(=O)(=O)c3ccccc3)CC2)cc1 (configuration not stated) | % | -5.98
COc1ccc(NC(=O)CS(=O)(=O)c2ccccc2)cc1 | % | 26.3
CCC(C)n1c(-c2cc(OC)c(OC)c(OC)c2)nc2nc3ccccc3nc21 (configuration not stated) | % | 5.57

query: Data request, read-out max response, for CCN(CC)S(=O)(=O)c1ccc(N2CCOCC2)c(NC(=O)C2CSC3(C)CCC(=O)N23)c1 (configuration not stated)
result: 10.5

query: Data request, read-out max response, for CC(=O)c1ccc(OCCN2CCOCC2)cc1
result: 3.75

query: Data request, read-out max response, for O=C(CS(=O)(=O)c1ccccc1)Nc1ccc(S(=O)(=O)Nc2ccccn2)cc1
result: -1.21

query: Data request, read-out max response, for c1ccc(-c2ccc(OCCN3CCOCC3)cc2)cc1
result: 47.6

query: Data request, read-out max response, for O=C(O)C1CC=CC2CCN(C3CCCCC3)C(=O)C21 (configuration not stated)
result: -7.95

query: Data request, read-out max response, for CCc1ccc(N2CC(C(=O)N3CCCCCC3)CC2=O)cc1 (configuration not stated)
result: 15.1

query: Data request, read-out max response, for CC(C)(c1ccccc1)c1ccc(OCCN2CCCC2)cc1
result: 2.15

query: Data request, read-out max response, for O=C(c1ccc(CSc2ccccc2)cc1)N1CCCCCC1
result: 66.2

query: Data request, read-out max response, for CC1CCN(C(=O)c2ccc(CSc3ccc(Cl)cc3)cc2)CC1
result: -3.83

* * *

# protocolDescription: Cycloheximide Counterscreen for Small Molecule Inhibitors of Shiga Toxin; also: read at 38.3 µM for the half of the compounds with a filed dose; 0% is about no effect
# conditionLabel: cell reporter, cycloheximide protein synthesis inhibition counterscreen; active compounds read high
Hit rate of the full screen: of about 300,000 compounds, about 37,000 (12%) were called active. For the sample, actives were picked, then their nearest neighbours and some compounds at random.
parameter: max response (%)
The figure you give is taken to be in %; do not add the unit.

Some compounds with known max response results, for comparison:
compound | unitsOfMeasure | max response
COc1ccc2oc(C(=O)NCc3ccco3)c(C)c2c1 | % | 31.4
CC(=O)Nc1ccc(NC(=S)NC(=O)/C=C/c2ccccc2)cc1 | % | 4.54
COc1cccc(OCC(O)CNC(=O)c2oc3c(C)c(C)ccc3c2C)c1 (configuration not stated) | % | -4.29
CC(=O)Nc1ccccc1C(=O)C(=O)Nc1ccc(F)cc1 | % | 11.7
COc1ccc([N+](=O)[O-])cc1C1NN=C(c2cccc3ccccc23)S1 (configuration not stated) | % | -2.19

query: Data request, read-out max response, for O=C1N=C(N2CCCC2)S/C1=C\c1cccc(Br)c1
result: 20.2

query: Data request, read-out max response, for COc1ccc(N2C(=O)c3ccccc3NC2c2ccc(OC)c(CN3CCOCC3)c2)cc1 (configuration not stated)
result: 28.2
